Assignment: determine reported cell viability for the given compounds.
System: NCC-PMP1-C1
Assay: cell viability relative to DMSO control; higher = less growth inhibition
Conditions: 10 µM; 72 h
Where a name gives a salt, the structure may show the parent alone.
Please reply with the bare figure in % and do not write the unit itself.

QUERY: // returns reported cell viability for input CNNCc1ccc(C(=O)NC(C)C)cc1 [Procarbazine HCl]
RESULT: 100

QUERY: // returns reported cell viability for input CC(=O)O[C@]1(C(C)=O)CC[C@H]2[C@@H]3C=C(C)C4=CC(=O)CC[C@]4(C)[C@H]3CC[C@@]21C [Megestrol Acetate]
RESULT: 91.4

QUERY: // returns reported cell viability for input CO[C@H]1O[C@@H]2O[C@@]3(C)CC[C@H]4[C@H](C)CC[C@@H]([C@H]1C)[C@@]24OO3 [Artemether]
RESULT: 105

QUERY: // returns reported cell viability for input N#CC[C@H](C1CCCC1)n1cc(-c2ncnc3[nH]ccc23)cn1
RESULT: 83.6

QUERY: // returns reported cell viability for input CN(C)C/C=C/C(=O)Nc1cc2c(Nc3ccc(F)c(Cl)c3)ncnc2cc1O[C@H]1CCOC1 [Afatinib (BIBW2992)]
RESULT: 12.4

QUERY: // returns reported cell viability for input C[C@@H](CN1CC(=O)NC(=O)C1)N1CC(=O)NC(=O)C1 [Dexrazoxane]
RESULT: 94.8

QUERY: // returns reported cell viability for input Fc1ccc(C(c2ccc(F)cc2)N2CCN(C/C=C/c3ccccc3)CC2)cc1 [Flunarizine 2HCl]
RESULT: 99.6

QUERY: // returns reported cell viability for input CCCCNC(=O)NS(=O)(=O)c1ccc(C)cc1 [Tolbutamide]
RESULT: 96.4

QUERY: // returns reported cell viability for input Nc1cccc2c1C(=O)N(C1CCC(=O)NC1=O)C2=O (stereo not drawn) [Pomalidomide]
RESULT: 99.2

QUERY: // returns reported cell viability for input O=c1[nH]c(=O)n(C2CCCO2)cc1F (stereo not drawn)
RESULT: 108

QUERY: // returns reported cell viability for input COc1cc2nccc(Oc3ccc(NC(=O)C4(C(=O)Nc5ccc(F)cc5)CC4)cc3)c2cc1OC
RESULT: 48.9

QUERY: // returns reported cell viability for input O=C(c1ccc(OCCN2CCCCC2)cc1)c1c(-c2ccc(O)cc2)sc2cc(O)ccc12 [Raloxifene HCl]
RESULT: 92.9

QUERY: // returns reported cell viability for input Oc1ncnc2[nH]ncc12 [Allopurinol]
RESULT: 123

QUERY: // returns reported cell viability for input COc1ccc2[nH]c([S@@+]([O-])Cc3ncc(C)c(OC)c3C)nc2c1 [Esomeprazole Sodium]
RESULT: 108

QUERY: // returns reported cell viability for input O=C1c2c(O)ccc(O)c2C(=O)c2c(NCCNCCO)ccc(NCCNCCO)c21 [Mitoxantrone 2HCl]
RESULT: 2.67

QUERY: // returns reported cell viability for input Nc1nc(CC(=O)Nc2ccc(CCNC[C@H](O)c3ccccc3)cc2)cs1 [Mirabegron]
RESULT: 101

QUERY: // returns reported cell viability for input Cc1ccc(Nc2nccc(N(C)c3ccc4c(C)n(C)nc4c3)n2)cc1S(N)(=O)=O
RESULT: 72.5

QUERY: // returns reported cell viability for input CNC(=O)c1ccccc1Sc1ccc2c(/C=C/c3ccccn3)n[nH]c2c1 [Axitinib]
RESULT: 61.3

----------
Test system: NCC-PMP1-C1
Experiment: cell viability relative to DMSO control; higher = less growth inhibition
Conditions: 10 µM; 72 h
Where a name gives a salt, the structure may show the parent alone.
endpointName: cell viability (%)
Please reply with the bare figure in % and do not write the unit itself.

QUERY: // returns reported cell viability for input Cc1nc(Nc2ncc(C(=O)Nc3c(C)cccc3Cl)s2)cc(N2CCN(CCO)CC2)n1 [Dasatinib Monohydrate]
RESULT: 41.1

QUERY: // returns reported cell viability for input CCCS(=O)(=O)Nc1ccc(F)c(C(=O)c2c[nH]c3ncc(-c4ccc(Cl)cc4)cc23)c1F
RESULT: -12.5

QUERY: // returns reported cell viability for input O=C(O)C(=O)O.[NH-][C@@H]1CCCC[C@H]1[NH-].[Pt+2]
RESULT: 103

QUERY: // returns reported cell viability for input COc1ccc2c(c1OC)C(=O)O[C@@H]2[C@H]1c2c(cc3c(c2OC)OCO3)CCN1C [Noscapine HCl]
RESULT: 90.5

QUERY: // returns reported cell viability for input CO[C@@]12[C@H](COC(N)=O)C3=C(C(=O)C(C)=C(N)C3=O)N1C[C@@H]1N[C@@H]12
RESULT: 60.3

QUERY: // returns reported cell viability for input O=S(=O)(O)CCS
RESULT: -9.24

QUERY: // returns reported cell viability for input N#CC1(c2ccc(NC(=O)c3cccnc3NCc3ccncc3)cc2)CCCC1
RESULT: 77.6

QUERY: // returns reported cell viability for input Nc1nnc(-c2cccc(Cl)c2Cl)c(N)n1
RESULT: 103

QUERY: // returns reported cell viability for input O=c1[nH]c(=O)n([C@H]2C[C@H](O)[C@@H](CO)O2)cc1F
RESULT: 108

QUERY: // returns reported cell viability for input CCS(=O)(=O)N1CCN(c2ccc(Nc3ncc(C(N)=O)c(NC4CC4)n3)cc2)CC1
RESULT: 71.8

QUERY: // returns reported cell viability for input Cc1[nH]c(/C=C2\C(=O)Nc3ccccc32)c(C)c1CCC(=O)O [Orantinib (TSU-68, SU6668)]
RESULT: 115

QUERY: // returns reported cell viability for input Nc1nc(F)nc2c1ncn2[C@@H]1O[C@H](CO)[C@@H](O)[C@@H]1O
RESULT: 114

QUERY: // returns reported cell viability for input COc1cc(OC)cc(N(CCNC(C)C)c2ccc3ncc(-c4cnn(C)c4)nc3c2)c1
RESULT: 59.1

QUERY: // returns reported cell viability for input CC[C@@]1(O)C(=O)OCc2c1cc1n(c2=O)Cc2cc3c(CN(C)C)c(O)ccc3nc2-1 [Topotecan HCl]
RESULT: 55.8

QUERY: // returns reported cell viability for input Cc1ccc(-c2cc(C(F)(F)F)nn2-c2ccc(S(N)(=O)=O)cc2)cc1
RESULT: 100

QUERY: // returns reported cell viability for input CC(C)C[C@H](NC(=O)[C@H](Cc1ccccc1)NC(=O)c1cnccn1)B(O)O
RESULT: -0.129

QUERY: // returns reported cell viability for input CC(C)(C#N)c1cc(Cn2cncn2)cc(C(C)(C)C#N)c1
RESULT: 110

QUERY: // returns reported cell viability for input CNC[C@H](O)c1ccc(O)c(O)c1 [Epinephrine Bitartrate]
RESULT: 127

QUERY: // returns reported cell viability for input COc1cc([C@@H]2c3cc4c(cc3[C@@H](O[C@@H]3O[C@@H]5CO[C@@H](c6cccs6)O[C@H]5[C@H](O)[C@H]3O)[C@H]3COC(=O)[C@H]23)OCO4)cc(OC)c1O [Teniposide]
RESULT: 13.5

QUERY: // returns reported cell viability for input Cc1ccc(S(=O)(=O)Nc2nc3ccccc3nc2Nc2ccc3nsnc3c2)cc1
RESULT: 96.2

QUERY: // returns reported cell viability for input O=C(O)C1(C(=O)O)CCC1.[NH2-].[NH2-].[Pt+2]
RESULT: 61.9

QUERY: // returns reported cell viability for input Clc1ccc(C(c2ccccc2Cl)C(Cl)Cl)cc1 (stereo unspecified)
RESULT: 107

QUERY: // returns reported cell viability for input CC1=C(CC(=O)O)c2cc(F)ccc2/C1=C\c1ccc([S+](C)[O-])cc1 (stereo unspecified)
RESULT: 111

QUERY: // returns reported cell viability for input C=CC(=O)Nc1cccc(Nc2nc(Nc3ccc(N4CCN(C(C)=O)CC4)cc3OC)ncc2C(F)(F)F)c1
RESULT: 57.8

QUERY: // returns reported cell viability for input CN1CCN(c2ccc(C(=O)Nc3n[nH]c4ccc(Cc5cc(F)cc(F)c5)cc34)c(NC3CCOCC3)c2)CC1 [Entrectinib (RXDX-101)]
RESULT: -0.545

QUERY: // returns reported cell viability for input C=CC(=O)Nc1cc(Nc2nccc(-c3cn(C)c4ccccc34)n2)c(OC)cc1N(C)CCN(C)C
RESULT: 4.44

QUERY: // returns reported cell viability for input C=C1c2cccc(O)c2C(O)=C2C(=O)[C@]3(O)C(O)=C(C(N)=O)C(=O)[C@@H](N(C)C)[C@@H]3[C@@H](O)[C@H]12 [Methacycline HCl]
RESULT: 108

QUERY: // returns reported cell viability for input O=C(c1cc(Cc2n[nH]c(=O)c3ccccc23)ccc1F)N1CCN(C(=O)C2CC2)CC1
RESULT: 92.3

QUERY: // returns reported cell viability for input COC(=O)N[C@H](C(=O)N[C@@H](Cc1ccccc1)[C@@H](O)CN(Cc1ccc(-c2ccccn2)cc1)NC(=O)[C@@H](NC(=O)OC)C(C)(C)C)C(C)(C)C [Atazanavir Sulfate]
RESULT: 109

QUERY: // returns reported cell viability for input O=C1NC(=O)[C@@H](c2cn3c4c(cccc24)CCC3)[C@@H]1c1c[nH]c2ccccc12 [Tivantinib (ARQ 197)]
RESULT: 79.8

QUERY: // returns reported cell viability for input Cc1ccc(C(=O)Nc2ccc(CN3CCN(C)CC3)c(C(F)(F)F)c2)cc1C#Cc1cnc2cccnn12
RESULT: 1.8
